# maps each entry to its IC50
Test system: pentosidine-like AGEs
experimental_protocol: Inhibition of advanced glycation end products (AGEs) formation, BSA/D-ribose fluorescence assay
Format: biochemical
measurement_parameters: BSA 10 mg/mL, D-ribose 0.5 M, 37 °C, 24 h
Give your result in µM as a bare value.

Quick one: IC50 for "COC1=C(N[C@@H](CO)C(=O)O)C[C@](O)(CO)CC1=NCC(=O)O" ? 103

Quick one: IC50 for "COC1=C(N[C@H](C(=O)O)[C@@H](C)O)C[C@](O)(CO)CC1=N[C@@H](CCC(=O)O)C(=O)O" ? 85

Quick one: IC50 for "COC1=C(NCCO)C[C@](O)(CO)CC1=NCC(=O)O" ? 125

Quick one: IC50 for "COC1=C(N[C@H](C(=O)O)[C@@H](C)O)C[C@](O)(CO)CC1=NCC(=O)O" ? 90

Quick one: IC50 for C[C@@H]1O[C@@H](OC[C@H]2O[C@@H](Oc3c(-c4ccc(O)c(O)c4)oc4cc(O)cc(O)c4c3=O)[C@H](O)[C@@H](O)[C@@H]2O)[C@H](O)[C@H](O)[C@H]1O [Rutin, reference compound] ? 85
